target_or_test_system: 5-HT2C receptor (Homo sapiens)
Construct: host or cells: HEK293
Sequence (P28335 33-458): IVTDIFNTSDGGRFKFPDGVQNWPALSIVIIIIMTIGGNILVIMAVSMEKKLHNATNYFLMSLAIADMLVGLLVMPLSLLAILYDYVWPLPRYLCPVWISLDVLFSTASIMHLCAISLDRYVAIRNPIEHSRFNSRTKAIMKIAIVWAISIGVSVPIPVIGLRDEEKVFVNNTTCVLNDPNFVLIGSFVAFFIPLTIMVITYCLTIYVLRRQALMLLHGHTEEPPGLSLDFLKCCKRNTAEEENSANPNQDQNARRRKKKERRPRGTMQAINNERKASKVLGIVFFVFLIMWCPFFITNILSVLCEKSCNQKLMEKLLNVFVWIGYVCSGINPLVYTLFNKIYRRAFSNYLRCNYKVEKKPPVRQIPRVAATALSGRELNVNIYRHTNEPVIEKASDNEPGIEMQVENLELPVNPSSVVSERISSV
test_method_notes: FLIPR Ca2+ flux functional assay, 5-HT2C agonist activity
Assay type: cell-based
Measured pEC50 values are reported for all entries that follow.
Please treat pEC50 as minus the base-10 logarithm of the molar concentration.

>>> print(df.to_string())
                            compound  assay_result
0  CCN(CCc1c[nH]c2cccc(OC)c12)CC(C)C          6.86
1   COc1ccc2[nH]cc(CCN(C)C3CCC3)c2c1          6.89
2  CCN(CCc1c[nH]c2ccc(OC)cc12)CC(C)C          5.95

// field: pEC50; key: CCCN(CCc1c[nH]c2ccc(OC)cc12)C(C)C ; value = 6.73

Looking up CCC(C)N(C)CCc1c[nH]c2ccccc12 (stereo not shown) , I found its pEC50 recorded as 6.19

Briefly, pEC50 measured for COc1cccc2[nH]cc(CCN(C)CC(C)C)c12 : 6.58

For record CCCN(C)CCc1c[nH]c2ccc(OC(F)(F)F)cc12 the listed pEC50 is 6.48
